The measured values listed here are drawn from patent US8742110B2.

- system name: SSTR5 (Homo sapiens (Human))
- Sequence (P35346 whole entry): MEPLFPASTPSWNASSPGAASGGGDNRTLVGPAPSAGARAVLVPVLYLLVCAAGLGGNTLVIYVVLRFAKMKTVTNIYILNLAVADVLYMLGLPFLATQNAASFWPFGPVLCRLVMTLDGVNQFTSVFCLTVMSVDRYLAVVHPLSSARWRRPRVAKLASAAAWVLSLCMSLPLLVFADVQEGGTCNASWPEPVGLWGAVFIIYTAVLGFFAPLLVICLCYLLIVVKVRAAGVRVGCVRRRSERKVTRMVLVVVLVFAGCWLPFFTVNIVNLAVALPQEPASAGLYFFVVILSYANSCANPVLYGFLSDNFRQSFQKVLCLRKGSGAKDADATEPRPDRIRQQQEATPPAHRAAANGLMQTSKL
- test description: SSTR5 binding assay
- measurement conditions: CHO-K1 membranes expressing cloned human SSTR5
Where a name gives a salt, the structure may show the parent alone.
Each entry below lists one item and its recorded log10(IC50) value.
Could you please treat all values as log10 of IC50 in nM?

>>> measured_value("O=C(O)c1ccc(N2CC3(CCN(Cc4cn(C5CCCCC5)nc4-c4ccc(C(F)(F)F)cc4)CC3)OC2=O)cc1 [Example 1-24, TFA salt]")
0.30
>>> measured_value("COc1ccc2c(CN3CCC4(CC3)CN(c3ccc(C(=O)O)cc3)C(=O)O4)cn(C)c2c1 [Example 6-19, TFA salt]")
0.83
>>> measured_value("CCOc1ccc(-c2ccc(F)cc2F)c(CN2CCC3(CC2)CN(c2ccc(C(=O)O)cc2)C(=O)O3)c1 [Example 4-3, TFA salt]")
-0.31

### Prompt May I ask what log10(IC50) has been recorded for CCOc1ccc(-c2nn(-c3ccccc3)cc2CN2CCC3(CC2)CN(c2ccc(C(=O)O)cc2)C(=O)O3)cc1 [Example 1-12, TFA salt] ?
### Response 0.73

### Prompt Then this compound: O=C(O)c1ccc(N2CC3(CCN(Cc4nc(-c5ccccc5)oc4-c4cc(F)c(F)cc4F)CC3)OC2=O)cc1 [Example 6-30, TFA salt]
### Response 1.95

### Prompt // repeat for Cn1cc(-c2cc(F)c(F)cc2F)c(CN2CCC3(CC2)CN(c2ccc(C(=O)O)cc2)C(=O)O3)n1 [Example 2-2, TFA salt] and report
### Response 3.64

### Prompt For CCOc1cc(CN2CCC3(CC2)CN(c2ccc(C(=O)O)cc2)C(=O)O3)cc2c(OCC)cccc12 [Example 5-3, TFA salt] then?
### Response -0.01

### Prompt Item: CC(C)n1cc(CN2CCC3(CC2)CN(c2ccc(C(=O)O)cc2)C(=O)O3)c2c(OCc3ccccc3)cccc21 [Example 6-18, TFA salt]
### Response -0.65

### Prompt Now the same for O=C(O)c1ccc(N2CC3(CCN(Cc4nc(-c5ccccc5)oc4-c4ccccc4)CC3)OC2=O)cc1 [Example 6-34, TFA salt]
### Response 1.93

### Prompt Then O=C(O)c1ccc(N2CC3(CCN(Cc4cn(C5CCCCC5)nc4-c4ccc(OC(F)(F)F)cc4)CC3)OC2=O)cc1 [Example 1-23, TFA salt] ?
### Response 0.35
